Data credit: patent US20100303758A1

- experimental-system: human GR (Homo sapiens)
- Construct: SW1353 naturally expresses human GR; endogenous in cells
- Sequence (P04150 1-777): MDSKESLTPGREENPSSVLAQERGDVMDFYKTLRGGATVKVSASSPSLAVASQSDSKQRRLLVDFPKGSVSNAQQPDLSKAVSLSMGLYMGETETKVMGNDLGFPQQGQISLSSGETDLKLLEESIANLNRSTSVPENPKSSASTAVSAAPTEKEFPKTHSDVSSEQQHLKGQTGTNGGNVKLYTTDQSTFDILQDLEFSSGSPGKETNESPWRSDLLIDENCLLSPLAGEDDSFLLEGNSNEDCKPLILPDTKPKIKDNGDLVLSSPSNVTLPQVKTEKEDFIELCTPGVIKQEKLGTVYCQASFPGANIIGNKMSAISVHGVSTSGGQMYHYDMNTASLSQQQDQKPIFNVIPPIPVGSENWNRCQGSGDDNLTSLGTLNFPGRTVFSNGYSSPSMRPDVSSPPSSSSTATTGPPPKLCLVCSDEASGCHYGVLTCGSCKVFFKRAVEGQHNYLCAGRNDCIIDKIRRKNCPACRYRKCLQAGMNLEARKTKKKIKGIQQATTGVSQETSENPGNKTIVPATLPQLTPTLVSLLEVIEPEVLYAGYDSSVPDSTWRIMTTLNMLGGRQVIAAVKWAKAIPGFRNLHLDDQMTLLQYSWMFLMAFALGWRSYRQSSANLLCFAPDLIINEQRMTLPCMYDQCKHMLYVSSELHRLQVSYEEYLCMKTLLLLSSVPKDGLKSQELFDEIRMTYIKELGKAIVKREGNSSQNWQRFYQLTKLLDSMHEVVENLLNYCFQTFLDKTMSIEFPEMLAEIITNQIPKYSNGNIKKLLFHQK
- run-description: GR agonist potency, MMTV-luciferase reporter in SW1353 cells
- particulars: human chondrosarcoma cell-line SW1353 stably transfected with MMTV-luciferase reporter; approx. 18 hours; data as percentage of 1 μM dexamethasone positive control
Give EC50 for every item shown.
One number for each entry, in nM.

Take a look at these entries with their results.
INSERT INTO assay_data (compound_structure, endpoint_name, measurement_units, obs_value) VALUES
  ('C[C@@H]1C[C@H]2[C@@H]3C[C@H](F)C4=CC(=O)C=C[C@]4(C)[C@@]3(F)[C@@H](O)C[C@]2(C)[C@@]1(OC(=O)c1ccc(Oc2ccc(O)c(Cl)c2)cc1)C(=O)OCC#N', 'EC50', 'nM', 21.3),
  ('C[C@]12C=CC(=O)C=C1[C@@H](F)C[C@H]1[C@@H]3CC[C@](OC(=O)c4ccc(CSc5ccc(O)cc5)cc4)(C(=O)OCC#N)[C@@]3(C)C[C@H](O)[C@@]12F', 'EC50', 'nM', 30.2),
  ('C[C@]12C=CC(=O)C=C1CC[C@H]1[C@@H]3CC[C@](OC(=O)c4ccc(Sc5ccc(Cl)c(O)c5)cc4)(C(=O)SCC#N)[C@@]3(C)C[C@H](O)[C@@]12F', 'EC50', 'nM', 54.7),
  ('C[C@@H]1C[C@H]2[C@@H]3C[C@H](F)C4=CC(=O)C=C[C@]4(C)[C@@]3(F)[C@@H](O)C[C@]2(C)[C@@]1(OC(=O)c1ccc(Oc2ccc(Cl)c(O)c2)cc1)C(=O)OCC#N', 'EC50', 'nM', 24.4);

Field: next compound
Hi! What's the reported EC50 for "CSc1cccc(Sc2ccc(C(=O)O[C@]3(C(=O)OCC#N)[C@H](C)C[C@H]4[C@@H]5C[C@H](F)C6=CC(=O)C=C[C@]6(C)[C@@]5(F)[C@@H](O)C[C@@]43C)cc2)c1" on human GR (Homo sapiens)?
90.8
